Experiment: NCI Yeast Anticancer Drug Screen. Data for the cln2 rad14 strain (AID 165);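 further: 0% = growth equal to vehicle treated cultures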
Conditions: S. cerevisiae cln2 rad14 strain, at 50.0 µM, hits give high values
Method: Growth inhibition of yeast strains with defined genetic alterations is measured as a screen for potential anti-cancer activity. Selected strains with alterations in DNA damage repair or cell cycle control were exposed to compounds and growth inhibition was measured relative to vehicle treated controls. The strain used in this assay is cln2 rad14
The panel holds about 79,000 compounds, 15% with a hit somewhere; the sample as a whole holds those more often.
value.type: growth inhibition (%)
Give the value in % but do not write % after it.

COc1ccc(C)cc1OC ... 0.6

Need growth inhibition, item O=C1C=C(Nc2ccc([N+](=O)[O-])cc2)c2ccccc2C1=O
4.65

Lookup CC(=O)Nc1ccc(NC(C)=O)c2c1C(=O)c1ccccc1C2=O
2.15

Lookup c1ccc(Cc2ccccc2)cc1
1.5

Lookup O=C(O)c1cc([N+](=O)[O-])ccc1Cl
21

Lookup Cc1cccc(C(=O)N(C(C)C)C(C)C)c1
-50.8

Lookup CCCCC/C=N/Nc1nc(C)cc(=O)[nH]1
15.7

Lookup Cc1ccc(/C(C#N)=C/c2ccc3c(c2)OCO3)cc1
-14.3

Lookup Nc1ncnc2[nH]ncc12
-2.6

Lookup Nc1ccc(N=Nc2ccc(O)cc2)c(N)n1
2.85

Lookup O=C(Nc1ccccc1)OCCc1ccccc1
42.9

Lookup CN(C)c1ccc2nc3ccc(=N)cc-3sc2c1
7.45

Lookup COc1cc2c3cc1Oc1c(OC)c(OC)cc4c1C(Cc1ccc(O)c(c1)Oc1ccc(cc1)CC3N(C)CC2)N(C)CC4 (stereo unspecified)
6.9

Lookup CC(C)(N)COS(=O)(=O)O
-6.9

Lookup CCC(O)CC(CC)CO (stereo unspecified)
-32.7

Lookup CCCCCCCCCCCCCC(=O)Oc1ccc[nH]c1=O
11

Lookup CN(C)CCN(Cc1ccccc1)c1ccccc1
-10.7

Lookup O=C(NC1CCCCC1)OCc1c(COC(=O)NC2CCCCC2)c(-c2ccc(Cl)c(Cl)c2)n2c1CCC2
43.3

Lookup O=C(CCl)Nc1ccc2c(c1)C(=O)c1ccc(NC(=O)CCl)cc1C2=O
1.7

Lookup O=C(O)CCC(=O)OC(C1CO1)C(OC(=O)CCC(=O)O)C1CO1 (stereo unspecified)
3.3

###

test: NCI Yeast Anticancer Drug Screen. Data for the mlh1 rad18 strain (AID 175); details: S. cerevisiae mlh1 rad18 strain growth inhibition; at 50.0 µM; hits give high values
About 79,000 compounds went through this panel and 15% of them were active in at least one assay; those are over-represented in the sample as a whole.
The following molecules are listed with their measured growth inhibition values.
Give the value in % but do not write % after it.

# count of solved cases: 5
CC1(O)CCCCC1O (stereo unspecified) ... -15.3
O=c1[nH]nc(SC2CCCCC2)c(=O)[nH]1 ... -11.1
O=C(Nc1cccc(NC(=O)Nc2cc(C(F)(F)F)ccc2Cl)c1)Nc1cc(C(F)(F)F)ccc1Cl ... 11.7
O=[N+]([O-])c1ccccc1N=Nc1ccc(O)cc1O ... 39.2
O=c1cc2oc3cc(O)c(O)cc3c(-c3ccccc3O)c-2cc1O ... 26.4

Need growth inhibition, item COc1cc(C(N)=O)cc(OC)c1OC
-2.65

###

test: NCI Yeast Anticancer Drug Screen. Data for the mlh1 rad18 strain (AID 175); conditions: S. cerevisiae mlh1 rad18 strain growth inhibition; at 50.0 µM; hits give high values
The panel holds about 79,000 compounds, 15% with a hit somewhere; the sample as a whole holds those more often.
Label rule, in plain words: growth inhibition of 10% and up is Criterion met, under 10% is Criterion not met.

Entry Cc1ccc(C(O)C2CC2)cc1 (configuration not stated) : is its growth inhibition no less than 10%?
Criterion not met

Lookup CCCCCCCO
Criterion not met

Lookup O=[N+]([O-])c1ccc(N=Nc2ccc(O)c3ccccc23)cc1
Criterion not met

Lookup Cc1cc2nc(CO)[nH]c2cc1C
Criterion not met

Lookup COC(=O)C(O)c1ccccc1 (configuration not stated)
Criterion met

Lookup CSc1[nH]c(=O)ncc1F
Criterion not met

Lookup CCCCN(CCCC)CCCO
Criterion not met

Lookup C=CCNc1nnc(C)s1
Criterion not met

###

experiment: NCI Yeast Anticancer Drug Screen. Data for the cln2 rad14 strain (AID 165);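 further: 0% = growth equal to vehicle treated cultures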; details: S. cerevisiae cln2 rad14 strain, at 50.0 µM, hits give high values
The panel holds about 79,000 compounds, 15% with a hit somewhere; the sample as a whole holds those more often.
value.type: growth inhibition (%)
Give the value in % but do not write % after it.

# count of solved cases: 4
C=CC(=O)OCCCCCCCC ... -34.5
CC(=O)Nc1cccc(Cl)c1C ... 4.9
NC(=O)c1ccc(N=C(N)N=C(N)N)cc1 ... -36.2
CCCCC(CC)COC(C)=O (stereo unspecified) ... 5.2

Need growth inhibition, item NC(C(=O)O)c1ccc([N+](=O)[O-])cc1 (stereo unspecified)
7.25

Lookup Nc1ccccc1C(=O)Nc1ccc(Cl)cc1Cl
4.85

###

test: NCI Yeast Anticancer Drug Screen. Data for the mlh1 rad18 strain (AID 175); conditions: S. cerevisiae mlh1 rad18 strain growth inhibition; at 50.0 µM; hits give high values
This is part of a sample that, as a whole, favours compounds with a hit. Of some 79,000 tested, about 15% had one in any assay. Activity calls are given as the source filed them. Rule as the data show it: active = growth inhibition above about 70%; inactive = the rest.
value.type: growth inhibition

Need growth inhibition, item CC(=O)OCC(=O)[C@@]1(O)CC[C@H]2[C@@H]3CC[C@@H]4C[C@H](O)CC[C@]4(C)[C@H]3C(=O)C[C@@]21C
20.6% (inactive)

Lookup O=C(/C(=N/O)c1ccccc1)c1ccccc1
12.2% (inactive)

###

test: NCI Yeast Anticancer Drug Screen. Data for the mlh1 rad18 strain (AID 175); conditions: S. cerevisiae mlh1 rad18 strain growth inhibition; at 50.0 µM; hits give high values
This is part of a sample that, as a whole, favours compounds with a hit. Of some 79,000 tested, about 15% had one in any assay.
The following compounds are listed with their measured growth inhibition values.
Give the value in % but do not write % after it.

# count of solved cases: 2
COc1cc2cc(OC(C)=O)c3cc4c(cc3c2c(OC)c1OC)OCO4 ... -25.1
O=C(CCl)N1CCN(C/C=C/c2ccccc2)CC1 ... 28.5

Need growth inhibition, item COc1cc2nn(-c3ccccc3N)nc2cc1OC
29.9

Lookup O=C(Cc1ccccc1)Cc1ccccc1
13.6

###

The following compounds are listed with their measured growth inhibition values.
assay: NCI Yeast Anticancer Drug Screen. Data for the mlh1 rad18 strain (AID 175); details: S. cerevisiae mlh1 rad18 strain growth inhibition; at 50.0 µM; hits give high values
This is part of a sample that, as a whole, favours compounds with a hit. Of some 79,000 tested, about 15% had one in any assay.
Give the value in % but do not write % after it.

Need growth inhibition, item Cc1ccc(CCCC(=O)O)c(C)c1
45.6

Lookup Brc1cnc2ccccc2c1
22.2

Lookup CCOC(=O)Nc1cc2c(c(N)n1)N=C(c1ccccc1)CO2
-21.9

Lookup COC(=O)/C=C1\Sc2cc(F)ccc2NC1=O
-6.55

Lookup O=C(NCCNC(=O)c1ccc(Cl)cc1Cl)c1ccc(Cl)cc1Cl
-20.2

Lookup CSC[C@H](NC(=O)COc1cccc2cnccc12)C(=O)NC(Cc1ccccc1)C(O)C(=O)N1CSC[C@H]1C(=O)NC(C)(C)C (stereo partly drawn)
-51.4

Lookup CCN(CC)c1ccc2nc3ccc(=[N+](CC)CC)cc-3oc2c1
-258

Lookup CCN(CC)C(=O)/C=C(/C)c1ccccc1
-29.8

Lookup COc1cc(/C=N\Nc2ccccc2)ccc1OC(=O)c1ccccc1
17.6

Lookup CC(=O)OC1CC2C(C)(C)OC3CC(=O)OCC32C2CCC3(C)C(=CCC3c3ccoc3)C12C (stereo not drawn)
1.1

Lookup C[N+](C)(C)C(=O)c1ccccc1
46.6

Lookup COC(=O)/C=C\C(=O)OC
14.7

Lookup C=CCc1cc(C(C)=O)cc(OC)c1O
-19.4

Lookup COc1cccc(/C=N/NC(=S)NC2CC3CCC2C3)c1O (stereo not drawn)
-3.5

###

The following molecules are listed with their measured growth inhibition values.
assay: NCI Yeast Anticancer Drug Screen. Data for the mlh1 rad18 strain (AID 175); settings: S. cerevisiae mlh1 rad18 strain growth inhibition; at 50.0 µM; hits give high values
Compounds without any hit were thinned out: in the full panel of roughly 79,000, 15% have a hit. Activity calls are given as the source filed them. No stated cut-off is given here; in the data, active means growth inhibition above about 70%; inactive means the rest.

O=C1N(C[P+](c2ccccc2)(c2ccccc2)c2ccccc2)CCCN1C[P+](c1ccccc1)(c1ccccc1)c1ccccc1 ... 12.3% (inactive)
CC1(C)N=C(N)N=C(N)N1c1cccc(Br)c1 ... 2.3% (inactive)
CC(C)COC(=O)COC(=O)OCCOCCOC(=O)OCC(=O)OCC(C)C ... 8.6% (inactive)

Need growth inhibition, item O=[N+]([O-])c1ccc(S(=O)(=O)NN=C2CCCCC2)cc1
37.8% (inactive)

Where do these numbers come from? They come from PubChem BioAssay (NCI).
